- Measurement Description: in vitro
- Settings: mouse, c2c12 myoblast cells
Readout: viability at 12.5 µM

1. C[C@H]1[C@H](OC(=O)CCC(=O)O)O[C@@H]2O[C@@]3(C)CC[C@H]4[C@H](C)CC[C@@H]1[C@@]24OO3 [아르테수네이트, 아르테수네이트(artesunate)]: ~80%

* * *

- Measurement Description: Cell activity (cytotoxicity) by Cell Count Kit-8 (CCK8), amodiaquine and artesunate
- Settings: mouse, c2c12 myoblast cells
Readout: viability at 25 µM

1) CCN(CC)Cc1cc(Nc2ccnc3cc(Cl)ccc23)ccc1O: ~80%
